Tested on: SK-MEL-2 melanoma
PROCEDURE SUMMARY: NCI-60 one-dose screen, 48 h
MEASUREMENT CONDITIONS: 10 µM unless noted
Compounds without any hit were thinned out: in the full panel of roughly 83,000, 20% have a hit. Calls of active or inactive are those of the source. Rule for the calls: active = growth percent below 10; inactive = the rest.
Labels: active, inactive

COMPOUND	ASSAYED TARGET	ANSWER LABEL
O=[N+]([O-])c1cccc(C(c2ccccc2)c2ccccc2)c1	SK-MEL-2 melanoma	inactive
O=C(Nc1ccc(-n2ccc3c(NC(=O)c4ccccc4)nccc32)cc1)c1cccc(C(F)(F)F)c1	SK-MEL-2 melanoma	inactive
Nn1c(CN2CCN(c3cc4c(cc3F)c(=O)c(C(=O)O)cn4C3CC3)CC2)n[nH]c1=S	SK-MEL-2 melanoma	inactive
O=C(O)c1ccc(-n2cc(/C=N/Nc3ccc(F)cc3)c(-c3cccc(C(F)(F)F)c3)n2)cc1	SK-MEL-2 melanoma	inactive
COc1ccc(OCC(O)CN2CCN(c3ccc(Cl)cc3)CC2)cc1 (stereo unspecified)	SK-MEL-2 melanoma	inactive
COc1ccc(/C=C/C(=O)c2ccc(Oc3ncnc4ccccc34)cc2)cc1OC	SK-MEL-2 melanoma	inactive
CCOc1ccc(NC2=C(Cl)C(=O)c3ccccc3C2=O)cc1	SK-MEL-2 melanoma	inactive
CCNc1ncnc2n[nH]nc12	SK-MEL-2 melanoma	inactive
Nc1nc(Nc2ccc(OCc3cccc(F)c3)cc2)c2c(n1)[nH]c1ccc(O)cc12	SK-MEL-2 melanoma	active
O=c1c2ccccc2sc2c(N3CCCC3)nc3ccccc3c12	SK-MEL-2 melanoma	inactive
Nc1nccc(=S)[nH]1	SK-MEL-2 melanoma	inactive
S=C=NP1(N=C=S)=NP(N=C=S)(N=C=S)=NP(N=C=S)(N=C=S)=NP(N=C=S)(N=C=S)=N1 (stereo unspecified)	SK-MEL-2 melanoma	inactive
COc1ccc(-c2nn(-c3cccc(Cl)c3)cc2-c2cc(-c3ccc(Br)cc3)[nH]c(=O)c2C#N)cc1	SK-MEL-2 melanoma	inactive
c1ccc(CNCCN(CCNCc2ccccn2)Cc2ccc3ccccc3c2)nc1	SK-MEL-2 melanoma	active
Nc1nc(-c2cc3c(cc2Cl)NC(=O)/C3=C/c2ccccc2)cs1	SK-MEL-2 melanoma	inactive
COc1ccc(-c2nnc(NC(=O)CN3CCN(c4cc5c(cc4F)c(=O)c(C(=O)O)cn5C4CC4)CC3)s2)cc1OC	SK-MEL-2 melanoma	inactive
CC[C@@]1(O)C(=O)OCc2c1cc1n(c2=O)Cc2c-1nc1ccccc1c2/C=N/OC(C)(C)C	SK-MEL-2 melanoma	active
CC(=O)c1cc2c(c(O)c1C)C(=O)C(=O)c1c(O)cccc1-2	SK-MEL-2 melanoma	active
NS(=O)(=O)c1ccc(CCN2C(=O)/C(=C\c3ccc(Cl)cc3)C=C2c2ccc(Oc3ccccc3)cc2)cc1	SK-MEL-2 melanoma	inactive
Nc1nccc2c1ccn2-c1ccc(NC(=O)c2ccc(N3CCOCC3)c(C(F)(F)F)c2)cc1	SK-MEL-2 melanoma	inactive
Cc1cc2c(cc1C)N(C(=O)CCl)CCN2C(=O)CCl	SK-MEL-2 melanoma	active
